measured-target: furin, P09958;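 further: purified furin at 1:10 enzyme:substrate in 50 mM HEPES pH 7.5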
Sequence (P09958 whole entry): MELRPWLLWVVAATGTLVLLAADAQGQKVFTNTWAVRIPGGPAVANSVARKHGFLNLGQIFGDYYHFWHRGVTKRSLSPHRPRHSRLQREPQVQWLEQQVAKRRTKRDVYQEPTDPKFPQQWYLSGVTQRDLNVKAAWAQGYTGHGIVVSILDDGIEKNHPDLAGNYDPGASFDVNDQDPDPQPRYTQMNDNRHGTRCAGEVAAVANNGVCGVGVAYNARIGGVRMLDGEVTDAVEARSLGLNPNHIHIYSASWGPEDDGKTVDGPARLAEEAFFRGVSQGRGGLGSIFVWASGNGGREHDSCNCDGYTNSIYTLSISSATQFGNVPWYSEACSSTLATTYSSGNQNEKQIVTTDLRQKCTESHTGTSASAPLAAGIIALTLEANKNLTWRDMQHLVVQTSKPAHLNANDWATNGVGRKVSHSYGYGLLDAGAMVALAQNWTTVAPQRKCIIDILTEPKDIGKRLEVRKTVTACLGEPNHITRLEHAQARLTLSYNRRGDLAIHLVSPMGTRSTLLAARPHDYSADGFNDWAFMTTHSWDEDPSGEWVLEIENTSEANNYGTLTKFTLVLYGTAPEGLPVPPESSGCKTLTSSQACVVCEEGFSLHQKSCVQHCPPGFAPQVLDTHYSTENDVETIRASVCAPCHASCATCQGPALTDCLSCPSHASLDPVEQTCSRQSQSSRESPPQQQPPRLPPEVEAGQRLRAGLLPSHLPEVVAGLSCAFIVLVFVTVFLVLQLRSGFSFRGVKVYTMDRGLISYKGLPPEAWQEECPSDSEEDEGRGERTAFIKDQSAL
protocol-text: furin cleavage Z-score vs untreated control; higher = more cleavage, active = 3.5 or more, inactive = 1 or less, 8 variable residues between constant flanks
reported-conditions: 7.5 min
The list shows a part of the results. How many sequences the whole screen found active is unknown.
Respond using exactly one of the listed classes: 1 (yes) = active, 0 (no) = inactive

Reference set (6 entries):
biopolymer-sequence	class-label
CANLEVVTSTAGNASASA [HC2281]	0 (no)
CAGPVIQMYTAGNASASA [HC708]	0 (no)
CAVRARLLARAGNASASA [HC1624]	0 (no)
CAAAASKVKAAGNASASA [HC1407]	0 (no)
CARLKKSQFLAGNASASA [FS-2988]	0 (no)
CARFDRQASAAGNASASA [FS-2011]	0 (no)

Challenge: Tell me the recorded outcome of this test for CAMYVGGVEHAGNASASA [HC476] .
Response given: 0 (no)

Challenge: Assay outcome for CADPTTPLARAGNASASA [HC1564] : what was it?
Response given: 0 (no)

Challenge: GET /call?item= CAQLEVVTSTAGNASASA [HC2282] returns the recorded outcome of this test.
Response given: 0 (no)
